test target: T1, TP-25 peptide (human, also: biotinylated, site not given here)
T1 construct: 15-mer of human TDP-43 from the library spanning aa 199-285; captured on streptavidin plates
T1 peptide: VMDVFIPKPFRAFAF
protocol summary: indirect ELISA, biotinylated 15-mer peptide on streptavidin plate, hybridoma supernatant
Where no end group is shown, it is not given here.
Listing of entries alongside the reported OD.
measure: OD

{"binder": "ACI-7062-416A11-Ab1 (antibody, IgG2a, V domains shown, also called 416A11B3; clone 18) VH: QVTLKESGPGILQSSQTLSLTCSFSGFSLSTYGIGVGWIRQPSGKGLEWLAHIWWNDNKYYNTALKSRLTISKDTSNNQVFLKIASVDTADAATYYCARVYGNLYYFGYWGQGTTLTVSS VL: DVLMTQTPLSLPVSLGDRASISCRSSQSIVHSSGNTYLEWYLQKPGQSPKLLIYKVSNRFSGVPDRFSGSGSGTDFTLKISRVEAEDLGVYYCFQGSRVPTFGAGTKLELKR", "result": "0.9 O.D. (405 nm)"}
{"binder": "ACI-7062-401A2-Ab2 (antibody, IgG1, V domains shown, also called 401A2C6; clone 2) VH: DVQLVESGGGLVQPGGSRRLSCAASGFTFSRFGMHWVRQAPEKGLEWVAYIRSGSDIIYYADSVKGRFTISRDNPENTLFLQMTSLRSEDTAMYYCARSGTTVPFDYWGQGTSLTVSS VL: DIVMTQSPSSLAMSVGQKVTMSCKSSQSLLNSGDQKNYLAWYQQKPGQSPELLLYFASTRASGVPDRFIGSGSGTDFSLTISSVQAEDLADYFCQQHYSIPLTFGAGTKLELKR", "result": "1 O.D. (405 nm)"}
